test: Circular dichroism spectroscopy; type: physicochemical; conditions: 0.2 mg/mL peptide, 10 mM phosphate buffer, 20% trifluoroethanol, 37 °C
Ends that are not written are not given here.
I'd appreciate it if you could supply helicity, with TFE values for the items below.
Hi! Could you send only the number? It should be in %, unit omitted.

Entry EKLKAKLKEGGEKLKAKLKE [FLANK] ; helicity, with TFE = 38

Looking up EKLKAKLKEGGLNIKRGIISALLVPPETEEAGGEKLKAKLKE [B04] , I found its helicity, with TFE recorded as 43

The recorded helicity, with TFE for EKLKAKLKEGGKATLELSPWQMSALVQVHASQPSSFHDFPDLGGEKLKAKLKE [B61] is 60

Reported helicity, with TFE ( EKLKAKLKEGGQELQRYLSLVGQVYSTLVTYISDWWTLGGEKLKAKLKE [B38] ) = 59

# helicity, with TFE (sequence: EKLKAKLKEGGGLSDEAVTSLLPQLIEVSSPGGEKLKAKLKE [B07] ) is 40
